The origin of these recorded values is patent US11053234B2.

target: haematopoietic prostaglandin D synthase (H-PGDS) (Homo sapiens); construct: Full length human H-PGDS cDNA (Invitrogen Ultimate ORF 10H13026) was amplified by PCR; 6-His (N); TEV protease cleavage site (N); made in house; host or cells: E. coli BL21 (DE3*), vector pET22b+; assay: H-PGDS RapidFire high throughput mass spectrometry assay (conversion of PGH2 to PGD2); format: biochemical; settings: 10 nM H-PGDS, PGH2 formed in situ by COX-2 from arachidonic acid; read-out: Potency Range (mean pIC50) (converted)
Sequence (O60760 whole entry): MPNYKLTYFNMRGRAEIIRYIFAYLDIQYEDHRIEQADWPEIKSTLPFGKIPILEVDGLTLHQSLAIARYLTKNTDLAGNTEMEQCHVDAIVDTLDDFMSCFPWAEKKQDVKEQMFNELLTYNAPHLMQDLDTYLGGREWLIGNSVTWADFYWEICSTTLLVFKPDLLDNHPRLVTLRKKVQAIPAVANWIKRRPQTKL
Where a name gives a salt, the structure may show the parent alone.
property: IC50

compound	property	result
Cc1cnnc(N2CC(NC(=O)[C@H]3C[C@H](Oc4cccc5scnc45)C3)C2)c1 [Example 241, trifluoroacetic acid salt]	IC50	10 to 79.4 nM
CC(N[C@H]1CC[C@H](NC(=O)[C@H]2C[C@H](Oc3cc(F)ccc3OC(F)F)C2)CC1)C(F)F (mixture of isomers) [Example 23]	IC50	10 to 79.4 nM
CC(C)(O)[C@H]1CC[C@H](NC(=O)[C@H]2C[C@H](Oc3cc(F)ccc3OC(F)F)C2)CC1 [Example 34]	IC50	10 to 79.4 nM
CC(C(F)F)N1CCC(NC(=O)[C@H]2C[C@H](Oc3cc(F)ccc3OC(F)F)C2)CC1 (mixture of isomers) [Example 21]	IC50	10 to 79.4 nM
Cn1nc(C2CC2)cc1NC(=O)[C@H]1C[C@H](Oc2cccc3cccnc23)C1 [Example 214]	IC50	100 to 1000 nM
CC(C)c1nnc(NC(=O)[C@H]2C[C@H](Oc3cccc4cccnc34)C2)s1 [Example 198]	IC50	10 to 79.4 nM
O=C(NC1CCN(c2ncc(F)cn2)CC1)N1CC(Oc2cc(F)cc3scnc23)C1 [Example 118]	IC50	10 to 79.4 nM
COc1ccc(F)cc1O[C@H]1C[C@H](C(=O)N[C@H]2CC[C@H](C(C)(C)O)CC2)C1 [Example 168]	IC50	10 to 79.4 nM
CC(=O)c1csc(NC(=O)[C@H]2C[C@H](Oc3cccc4c(Br)coc34)C2)n1 [Example 271]	IC50	10 to 79.4 nM
O=C(NC1CN(c2ncc(F)cn2)C1)N1CC(Oc2cccc3scnc23)C1 [Example 61]	IC50	10 to 79.4 nM
CC(N[C@H]1CC[C@H](NC(=O)N2CC(Oc3cccc4scnc34)C2)CC1)C(F)F (mixture of isomers) [Example 40]	IC50	10 to 79.4 nM
O=C(NC1CN(c2ccnc(Cl)n2)C1)[C@H]1C[C@H](Oc2cc(F)ccc2OC(F)F)C1 [Example 6]	IC50	10 to 79.4 nM
COc1ccc(F)cc1O[C@H]1C[C@H](C(=O)NC2CCN(c3nccs3)CC2)C1 [Example 154]	IC50	10 to 79.4 nM
O=C(Nc1ccnc(C2CC2)n1)N1CC(Oc2cc(F)cc3scnc23)C1 [Example 313]	IC50	10 to 79.4 nM
O=C(Nc1ncco1)[C@H]1C[C@H](Oc2cccc3cccnc23)C1 [Example 208]	IC50	100 to 1000 nM
CC(C)(O)[C@H]1CC[C@H](NC(=O)[C@H]2C[C@H](Oc3cc(F)ccc3F)C2)CC1 [Example 229]	IC50	100 to 1000 nM
CNC(=O)c1ccc(N2CC(NC(=O)[C@H]3C[C@H](Oc4cccc5scnc45)C3)C2)nc1 [Example 38]	IC50	10 to 79.4 nM
CCOCc1nc(NC(=O)[C@H]2C[C@H](Oc3cc(F)cc4scnc34)C2)n[nH]1 [Example 335]	IC50	10 to 79.4 nM
CC(C)(O)C12C3C4C1C1C2C3C41NC(=O)N1CC(Oc2cccc3scnc23)C1 (stereo not shown) [Example 317]	IC50	10 to 79.4 nM
CC(N[C@H]1CC[C@H](NC(=O)N2CC(Oc3cc(F)cc4scnc34)C2)CC1)C(F)F (mixture of isomers) [Example 142]	IC50	10 to 79.4 nM
COC(=O)N1CCOC(CNC(=O)N2CC(Oc3cccc4scnc34)C2)C1 (racemic) [Example 94]	IC50	100 to 1000 nM
O=C(Nc1nccs1)[C@H]1C[C@H](Nc2cccc3cccnc23)C1 [Example 221]	IC50	100 to 1000 nM
COc1ccc(F)cc1O[C@H]1C[C@H](C(=O)Nc2nc(C(C)=O)cs2)C1 [Example 163]	IC50	10 to 79.4 nM
NC(=O)c1ccc(N2CC(NC(=O)[C@H]3C[C@H](Oc4cc(F)cc5scnc45)C3)C2)nc1 [Example 110]	IC50	10 to 79.4 nM
CC(C)c1csc(NC(=O)[C@H]2C[C@H](Oc3cccc4cccnc34)C2)n1 [Example 206]	IC50	< 10 nM
CS(=O)(=O)c1ccc(NC(=O)[C@H]2C[C@H](Oc3cccc4scnc34)C2)c(F)c1 [Example 247]	IC50	10 to 79.4 nM
C[C@@H]1[C@H](Oc2cccc3scnc23)CN1C(=O)N[C@H]1CC[C@H](C(C)(C)O)CC1 [Example 305]	IC50	10 to 79.4 nM
CC(C)(O)[C@H]1CC[C@H](NC(=O)N2CC(C(F)c3cccc4cccnc34)C2)CC1 (mixture of isomers) [Example 256]	IC50	100 to 1000 nM
COc1ccc(F)cc1O[C@H]1C[C@H](C(=O)Nc2ncc(C(C)(C)O)s2)C1 [Example 165]	IC50	10 to 79.4 nM
CC(C)(O)[C@H]1CC[C@H](NC(=O)[C@H]2C[C@H](Oc3ccccc3OC(F)F)C2)CC1 [Example 278]	IC50	10 to 79.4 nM
C[C@H]1[C@@H](Oc2cccc3scnc23)CN1C(=O)N[C@H]1CC[C@H](C(C)(C)O)CC1 [Example 304]	IC50	10 to 79.4 nM
